- Test system: isolated helical DNA
- Experiment notes: ΔTm of isolated helical DNA
- Format: binding
Form field: ΔTm of isolated helical DNA (one value per entry).
Please reply with the bare figure in °C and do not write the unit itself.

{"Compound": "COc1cccc2c1C(=O)c1c(O)c3c(c(O)c1C2=O)C[C@@](O)(C(C)=O)C[C@@H]3O[C@H]1C[C@H](N)[C@H](O)[C@H](C)O1 [Daunorubicin, daunorubicin, reference compound]", "ΔTm of isolated helical DNA / °C": 10.5}

Please supply the value of reported ΔTm of isolated helical DNA for the item COCC(C#N)N[C@H]1C[C@H](O[C@H]2C[C@](O)(C(=O)CO)Cc3c(O)c4c(c(O)c32)C(=O)c2c(OC)cccc2C4=O)O[C@@H](C)[C@H]1O (some centres unmarked)
12.5

Please supply the value of reported ΔTm of isolated helical DNA for the item `COc1cccc2c1C(=O)c1c(O)c3c(c(O)c1C2=O)C[C@@](O)(C(C)=O)C[C@@H]3O[C@H]1C[C@H](NCC#N)[C@H](O)[C@H](C)O1`
11.7

Please supply the value of reported ΔTm of isolated helical DNA for the item `COc1cccc2c1C(=O)c1c(O)c3c(c(O)c1C2=O)C[C@@](O)(C(=O)CO)C[C@@H]3O[C@H]1C[C@H](NCC#N)[C@H](O)[C@H](C)O1`
13.9

Please supply the value of reported ΔTm of isolated helical DNA for the item COc1cccc2c1C(=O)c1c(O)c3c(c(O)c1C2=O)C[C@@](O)(C(=O)CO)C[C@@H]3O[C@H]1C[C@H](N)[C@H](O)[C@H](C)O1 [Doxorubicin, doxorubicin, reference compound]
12.8

====

- Experiment notes: physchem
- Format: physicochemical
- Test conditions: octanol-phosphate buffer, pH 7.4
Readout name: logD

Please supply the value of reported logD for the item COc1cccc2c1C(=O)c1c(O)c3c(c(O)c1C2=O)C[C@@](O)(C(=O)CO)C[C@@H]3O[C@H]1C[C@H](N)[C@H](O)[C@H](C)O1 [Doxorubicin, doxorubicin, reference compound]
0.07
